All figures here come from ChEMBL document CHEMBL3797124.

Catalogue of inhibition readings, one per entry.
molecular target: 5-hydroxytryptamine receptor 6 (Rattus norvegicus) (UniProt P31388); assay: Displacement of [3H]-LSD from rat 5-Ht6 receptor expressed in HEK cells at 10 uM after 60 mins by liquid scintillation counting; assay type: cell-based; conditions: HEK293
Sequence (P31388 whole entry): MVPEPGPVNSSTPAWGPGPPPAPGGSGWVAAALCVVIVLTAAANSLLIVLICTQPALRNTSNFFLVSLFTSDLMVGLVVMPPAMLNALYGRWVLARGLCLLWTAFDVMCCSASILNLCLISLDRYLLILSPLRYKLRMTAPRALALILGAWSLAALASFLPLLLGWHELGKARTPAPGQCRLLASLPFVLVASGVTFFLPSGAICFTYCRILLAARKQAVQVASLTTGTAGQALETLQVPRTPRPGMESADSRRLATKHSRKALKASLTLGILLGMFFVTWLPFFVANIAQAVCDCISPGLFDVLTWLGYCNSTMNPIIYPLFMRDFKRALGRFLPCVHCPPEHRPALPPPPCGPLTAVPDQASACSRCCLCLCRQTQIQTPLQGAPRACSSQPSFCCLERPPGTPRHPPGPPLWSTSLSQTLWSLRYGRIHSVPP
Experimental Endpoint: inhibition (%)

[[record]]
compound = "CN(C)c1ccc(C(C(=O)NC(C)(C)C)N2CCc3c([nH]c4ccccc34)CC2=O)cc1 (centres undefined)"
experimental_endpoint = "inhibition"
quantitative_result = 16

[[record]]
compound = "CC(C)(C)NC(=O)C(C1CCCCC1)N1CCc2c([nH]c3ccccc23)CC1=O (centres undefined)"
experimental_endpoint = "inhibition"
quantitative_result = 10

[[record]]
compound = "CC(C)(C)n1nnnc1C(c1ccc2c(c1)OCO2)N1CCc2c([nH]c3ccccc23)CC1=O (centres undefined)"
experimental_endpoint = "inhibition"
quantitative_result = 12

[[record]]
compound = "CC(C)(C)n1nnnc1C(c1ccc(Cl)cc1)N1CCc2c([nH]c3ccccc23)CC1=O (centres undefined)"
experimental_endpoint = "inhibition"
quantitative_result = 41

[[record]]
compound = "CN(C)c1ccc(C(c2nnnn2C(C)(C)C)N2CCc3c([nH]c4ccccc34)CC2=O)cc1 (centres undefined)"
experimental_endpoint = "inhibition"
quantitative_result = 1

[[record]]
compound = "O=C(NC1CCCCC1)C(c1ccc(Cl)cc1)N1CCc2c([nH]c3ccccc23)CC1=O (centres undefined)"
experimental_endpoint = "inhibition"
quantitative_result = 15

[[record]]
compound = "Cc1cccc(C)c1-n1nnnc1C(c1ccc(Cl)cc1)N1CCc2c([nH]c3ccccc23)CC1=O (centres undefined)"
experimental_endpoint = "inhibition"
quantitative_result = 19

[[record]]
compound = "COc1cccc(C(c2nnnn2C(C)(C)C)N2CCc3c([nH]c4ccccc34)CC2=O)c1OC (centres undefined)"
experimental_endpoint = "inhibition"
quantitative_result = 16

[[record]]
compound = "O=C1Cc2[nH]c3ccccc3c2CCN1C(c1ccc(Cl)cc1)c1nnnn1C1CCCCC1 (centres undefined)"
experimental_endpoint = "inhibition"
quantitative_result = 17

